measurementTarget: delta-opioid receptor (DOR) (Rattus norvegicus)
Construct: Rat cortices were homogenized using 50 mM Tris, pH 7.4, 10 mM MgCl2-6H2O, 200 µM PMSF; from tissue; host or cells: rat cortex membranes
Sequence (P33533 whole entry): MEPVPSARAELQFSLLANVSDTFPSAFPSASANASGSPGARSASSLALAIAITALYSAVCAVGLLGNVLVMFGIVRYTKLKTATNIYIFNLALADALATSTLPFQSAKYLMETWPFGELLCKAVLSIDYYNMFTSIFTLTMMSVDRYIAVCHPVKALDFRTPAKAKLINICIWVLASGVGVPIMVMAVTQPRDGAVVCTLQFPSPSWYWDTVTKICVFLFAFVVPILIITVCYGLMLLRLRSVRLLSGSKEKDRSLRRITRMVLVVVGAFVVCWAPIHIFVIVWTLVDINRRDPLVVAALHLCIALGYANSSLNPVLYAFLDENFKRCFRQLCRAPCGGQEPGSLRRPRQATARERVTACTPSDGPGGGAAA
assaySummary: DOR radioligand competition binding assay ([3H]-DPDPE)
conditionNotes: Delta screening results, mean of two experiments; read-out: Ki
# y = Ki below 7 µM (exclusive); n = Ki at/above 7 µM

> print(dat)
                                samplesmiles                         measurementtarget  assignedcategory
 1  Cc1cc(O)cc(C)c1C[C@@H](CN1C(=N)NC[C@@H]1Cc1ccccc1)N1C[C@H](CC(C)C)NC1=N  delta-opioid receptor (DOR) (Rattus norvegicus)                 y
 2  C[C@H]1CNC(=N)N1C[C@H](Cc1ccccc1)N1C[C@H](Cc2ccccc2)NC1=N  delta-opioid receptor (DOR) (Rattus norvegicus)                 n
 3  CC(C)C[C@H]1CN([C@@H](CC(C)C)CN2C(=N)NC[C@@H]2C)C(=N)N1  delta-opioid receptor (DOR) (Rattus norvegicus)                 n
 4  Cc1cc(O)cc(C)c1C[C@H]1CN([C@@H](CC(C)C)CN2C(=N)NC[C@@H]2Cc2ccccc2)C(=N)N1  delta-opioid receptor (DOR) (Rattus norvegicus)                 y
 5  Cc1cc(O)cc(C)c1C[C@H]1CN([C@@H](Cc2ccccc2)CN2C(=N)NC[C@@H]2Cc2c(C)cc(O)cc2C)C(=N)N1  delta-opioid receptor (DOR) (Rattus norvegicus)                 y
 6  Cc1cc(O)cc(C)c1C[C@H]1CNC(=N)N1C[C@H](CC(C)C)N1C[C@H](Cc2ccc(O)cc2)NC1=N  delta-opioid receptor (DOR) (Rattus norvegicus)                 y
 7  CC(C)C[C@H]1CN([C@@H](CC(C)C)CN2C(=N)NC[C@@H]2Cc2ccccc2)C(=N)N1  delta-opioid receptor (DOR) (Rattus norvegicus)                 n
 8  Cc1cc(O)cc(C)c1C[C@H]1CNC(=N)N1C[C@H](Cc1c(C)cc(O)cc1C)N1C[C@H](Cc2ccccc2)NC1=N  delta-opioid receptor (DOR) (Rattus norvegicus)                 y
 9  N=C1NC[C@H](Cc2ccc(O)cc2)N1C[C@H](Cc1ccc(O)cc1)N1C[C@H](Cc2ccc(O)cc2)NC1=N  delta-opioid receptor (DOR) (Rattus norvegicus)                 n
10  Cc1cc(O)cc(C)c1C[C@@H](CN1C(=N)NC[C@@H]1Cc1ccc(O)cc1)N1C[C@H](Cc2ccc(O)cc2)NC1=N  delta-opioid receptor (DOR) (Rattus norvegicus)                 y
11  CC(C)C[C@@H](CN1C(=N)NC[C@@H]1C)N1C[C@H](Cc2ccc(O)cc2)NC1=N  delta-opioid receptor (DOR) (Rattus norvegicus)                 n
12  N=C1NC[C@H](Cc2ccccc2)N1C[C@H](Cc1ccccc1)N1C[C@H](Cc2ccccc2)NC1=N  delta-opioid receptor (DOR) (Rattus norvegicus)                 n

----------
measurementTarget: mu-opioid receptor (MOR) (Rattus norvegicus, UniProt P33535)
Construct: Rat cortices were homogenized using 50 mM Tris, pH 7.4, and centrifuged at 16,500 rpm for 10 min; from tissue; host or cells: rat cortex membranes
Sequence (P33535 whole entry): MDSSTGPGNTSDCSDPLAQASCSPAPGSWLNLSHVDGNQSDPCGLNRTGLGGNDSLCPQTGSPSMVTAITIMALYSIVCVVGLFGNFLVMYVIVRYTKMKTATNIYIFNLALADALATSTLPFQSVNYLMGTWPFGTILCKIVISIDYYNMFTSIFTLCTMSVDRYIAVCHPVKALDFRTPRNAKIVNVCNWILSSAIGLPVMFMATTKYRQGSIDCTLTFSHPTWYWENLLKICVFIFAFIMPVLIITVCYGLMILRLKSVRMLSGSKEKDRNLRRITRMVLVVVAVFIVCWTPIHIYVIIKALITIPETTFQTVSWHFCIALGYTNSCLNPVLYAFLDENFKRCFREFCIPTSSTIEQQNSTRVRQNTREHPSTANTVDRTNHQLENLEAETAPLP
assaySummary: MOR radioligand competition binding assay ([3H]-DAMGO)
conditionNotes: Mu screening results, experiment 1; unit inferred; read-out: Ki (Exp 1)
pKi: −log10 of the molar value.
Would you mind labelling by pKi? At or over 7 is met, under is not met.

> print(dat)
                                    molecule  assignedcategory
 1  Cc1cc(O)cc(C)c1C[C@H]1CN([C@@H](Cc2c(C)cc(O)cc2C)CN2C(=N)NC[C@@H]2Cc2c(C)cc(O)cc2C)C(=N)N1 [1968-64]               met
 2  CC(C)C[C@H]1CN([C@@H](Cc2ccccc2)CN2C(=N)NC[C@@H]2C)C(=N)N1 [1968-35]           not met
 3  C[C@H]1CNC(=N)N1C[C@H](Cc1ccc(O)cc1)N1C[C@H](Cc2ccc(O)cc2)NC1=N [1968-38]           not met
 4  CC(C)C[C@@H](CN1C(=N)NC[C@@H]1Cc1ccc(O)cc1)N1C[C@H](Cc2ccccc2)NC1=N [1968-25]           not met
 5  C[C@H]1CNC(=N)N1C[C@H](Cc1ccccc1)N1C[C@H](Cc2ccccc2)NC1=N [1968-33]           not met
 6  CC(C)C[C@H]1CN([C@@H](CC(C)C)CN2C(=N)NC[C@@H]2Cc2ccc(O)cc2)C(=N)N1 [1968-27]           not met
 7  CC(C)C[C@H]1CN([C@@H](Cc2ccccc2)CN2C(=N)NC[C@@H]2Cc2ccccc2)C(=N)N1 [1968-3]           not met
 8  Cc1cc(O)cc(C)c1C[C@H]1CNC(=N)N1C[C@H](CC(C)C)N1C[C@H](Cc2ccc(O)cc2)NC1=N [1968-58]               met
 9  Cc1cc(O)cc(C)c1C[C@H]1CN([C@@H](Cc2ccc(O)cc2)CN2C(=N)NC[C@@H]2Cc2c(C)cc(O)cc2C)C(=N)N1 [1968-56]               met
10  Cc1cc(O)cc(C)c1C[C@@H](CN1C(=N)NC[C@@H]1C)N1C[C@H](Cc2ccc(O)cc2)NC1=N [1968-16]               met
11  C[C@H]1CNC(=N)N1C[C@H](Cc1ccccc1)N1C[C@H](Cc2ccc(O)cc2)NC1=N [1968-34]           not met
12  CC(C)C[C@H]1CN([C@@H](Cc2ccc(O)cc2)CN2C(=N)NC[C@@H]2C)C(=N)N1 [1968-39]           not met
13  N=C1NC[C@H](Cc2ccc(O)cc2)N1C[C@H](Cc1ccccc1)N1C[C@H](Cc2ccccc2)NC1=N [1968-17]           not met
14  Cc1cc(O)cc(C)c1C[C@H]1CN([C@@H](Cc2ccccc2)CN2C(=N)NC[C@@H]2C)C(=N)N1 [1968-36]           not met
15  CC(C)C[C@@H](CN1C(=N)NC[C@@H]1C)N1C[C@H](Cc2ccc(O)cc2)NC1=N [1968-42]           not met
16  Cc1cc(O)cc(C)c1C[C@H]1CN([C@@H](Cc2ccc(O)cc2)CN2C(=N)NC[C@@H]2C)C(=N)N1 [1968-40]               met
17  N=C1NC[C@H](Cc2ccccc2)N1C[C@H](Cc1ccc(O)cc1)N1C[C@H](Cc2ccccc2)NC1=N [1968-5]           not met
18  CC(C)C[C@H]1CN([C@@H](CC(C)C)CN2C(=N)NC[C@@H]2C)C(=N)N1 [1968-43]           not met
19  Cc1cc(O)cc(C)c1C[C@H]1CN([C@@H](Cc2ccc(O)cc2)CN2C(=N)NC[C@@H]2Cc2ccccc2)C(=N)N1 [1968-4]               met
20  Cc1cc(O)cc(C)c1C[C@H]1CNC(=N)N1C[C@H](Cc1ccccc1)N1C[C@H](Cc2ccccc2)NC1=N [1968-49]               met
21  Cc1cc(O)cc(C)c1C[C@@H](CN1C(=N)NC[C@@H]1Cc1ccc(O)cc1)N1C[C@H](CC(C)C)NC1=N [1968-31]           not met

----------
List of Ki values.
measurementTarget: mu-opioid receptor (MOR) (Rattus norvegicus)
Construct: Rat cortices were homogenized using 50 mM Tris, pH 7.4, and centrifuged at 16,500 rpm for 10 min; from tissue; host or cells: rat cortex membranes
assaySummary: MOR radioligand competition binding assay ([3H]-DAMGO)
conditionNotes: Mu screening results, mean of Exp 1 and Exp 2; unit inferred; read-out: MEAN (Ki)
experimentalReadout: Ki (nM)

> print(dat)
                                   compound  unitssymbol  result
1  Cc1cc(O)cc(C)c1C[C@H]1CN([C@@H](Cc2c(C)cc(O)cc2C)CN2C(=N)NC[C@@H]2C)C(=N)N1 [1968-22]           nM    7.49
2  Cc1cc(O)cc(C)c1C[C@H]1CNC(=N)N1C[C@H](CC(C)C)N1C[C@H](Cc2ccc(O)cc2)NC1=N [1968-58]           nM    58.6
3  Cc1cc(O)cc(C)c1C[C@H]1CN([C@@H](Cc2ccc(O)cc2)CN2C(=N)NC[C@@H]2Cc2ccccc2)C(=N)N1 [1968-4]           nM    13.2
4  N=C1NC[C@H](Cc2ccccc2)N1C[C@H](Cc1ccccc1)N1C[C@H](Cc2ccc(O)cc2)NC1=N [1968-2]           nM     139
5  Cc1cc(O)cc(C)c1C[C@H]1CNC(=N)N1C[C@H](Cc1c(C)cc(O)cc1C)N1C[C@H](Cc2ccccc2)NC1=N [1968-61]           nM    48.4
6  Cc1cc(O)cc(C)c1C[C@@H](CN1C(=N)NC[C@@H]1Cc1ccc(O)cc1)N1C[C@H](CC(C)C)NC1=N [1968-31]           nM     297
7  Cc1cc(O)cc(C)c1C[C@H]1CNC(=N)N1C[C@H](CC(C)C)N1C[C@H](CC(C)C)NC1=N [1968-59]           nM     161
